B1: DLC1 (parent)
chain: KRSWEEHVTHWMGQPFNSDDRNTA

- Variants of: B1
- ASSAY_OVERVIEW: protein stability index of a GFP-peptide fusion (GPS, HEK-293T) (PSI 1-6); higher = more stable;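 also: lentivirally expressed fusions sorted by FACS into six bins by GFP to DsRed ratio, PSI derived from sequencing read proportions per bin multiplied by bin number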
- TEST_CONDITIONS: c terminus: a fixed tail appended
Assign class by protein stability index: not lower than 3 means 1.0; lower than 3 means 0.0.

VARIANT_LABEL | CLASS_ASSIGNMENT
A24V | 1.0
V8A | 1.0
W4D | 1.0
W11N | 0.0
N22R | 0.0
S3E | 1.0
K1M | 0.0
E6I | 0.0
H10D | 1.0
W4L | 1.0
D20Y | 0.0
R21I | 0.0
S3P | 1.0
G13P | 0.0
V8E | 1.0
K1C | 0.0
S3F | 1.0
H10I | 0.0
A24W | 0.0
R21M | 0.0
W4I | 1.0
R2G | 1.0
A24R | 0.0
W4Q | 1.0
N22Y | 0.0
D20E | 0.0
V8L | 1.0
K1S | 1.0
S18I | 0.0
P15I | 0.0
T9K | 1.0
A24S | 0.0
D19L | 0.0
V8W | 1.0
